Provenance of the data: patent US20110136792A1

Catalogue of EC50 readings, one per entry.
# Tested on: glycogen synthase
# ASSAY COMMENT: Glycogen Synthase (GS) Assay
# Type: biochemical
# CONDITION: compound concentration needed to give 50% maximum activation; coupled pyruvate kinase/lactate dehydrogenase assay, absorbance at 340 nm
REPORTED METRIC: EC50 (nM)

In [3]: df
Out[3]:
                                   compound  reported_metric  experimental_result
0  COc1cc(F)c(F)cc1-c1ccc(OCc2cccc(CN(CC(=O)O)C(=O)c3cccnc3)c2)cc1             EC50                  470
1  COc1cc(F)c(F)cc1-c1ccc(OCc2cccc(CN3[C@H](C(=O)O)CCCS3(=O)=O)c2)cc1             EC50                  110
2  O=C(O)C1CCS(=O)(=O)N1Cc1cccc(COc2ccc(-c3cc(F)c(F)cc3F)cc2)c1 (racemic)             EC50                  130
3  COc1cc(F)c(F)cc1-c1ccc(OCc2cccc(CN(CC(=O)O)C(=O)C3CCOC3)c2)cc1 (stereo not shown)             EC50                  280
4  O=C(O)CN(Cc1cccc(COc2ccc(-c3ccc(F)cc3F)cc2)c1)C(=O)c1ccccn1             EC50                 1540
5  COc1cc(F)c(F)cc1-c1ccc(OCc2cccc(CN(CC(=O)O)C(=O)c3cn(C)cn3)c2)cc1             EC50                  340
6  O=C(O)C1CCS(=O)(=O)N1Cc1ccc(F)c(COc2ccc(-c3ccc(F)cc3F)cc2)c1 (stereo not shown)             EC50                  150
